The origin of these recorded values is ChEMBL document CHEMBL1932971.

- System: Staphylococcus aureus
- Method: Antibacterial activity against coagulase-positive Staphylococcus aureus at 30 ug/ml after 24 hrs by agar well diffusion method
- Type: functional
- Condition Parameters: read-out: DIZ
Numbered stars: 1 amine (or outer) side, 2 acyl side, 3 side chain; on linkers, the order of the positions; unused ones are H or OH. Peptide text beside a SMILES is read from it. * marks the point of attachment. Piperazinyl(4-(2,3-Cl2Ph)) = Clc1cccc(N2CCN(*)CC2)c1Cl; Thiocarbamoyl(N-4-ClPh) = S=C(Nc1ccc(Cl)cc1)*; Thiocarbamoyl(4-MeOPh) = COc1ccc(NC(=S)*)cc1; Thiocarbamoyl(N-2-FPh) = Fc1ccccc1NC(=S)*; NH(4-MeO-phenyl) = COc1ccc(N*)cc1; NH(4-Cl-phenyl) = Clc1ccc(N*)cc1; X1 = Fc1ccc2c(C3CCN(*)CC3)noc2c1; NH(2-F-phenyl) = Fc1ccccc1N*; CO = O=C([*:1])[*:2]

Compound	Measured Target	zone of inhibition at 30 µg/mL [mm]
CC[C@H](C)[C@H](NC(=O)CNC(=O)CNC(=S)Nc1ccc(Cl)cc1)C(=O)N1CCC[C@H]1C(=O)N1CCC(c2noc3cc(F)ccc23)CC1 ({Thiocarbamoyl(N-4-ClPh)}-GGIP-X1)	Staphylococcus aureus	21
O=C(CNC(=S)Nc1ccccc1F)NCC(=O)N[C@@H](Cc1ccccc1)C(=O)N1CCC[C@H]1C(=O)N1CCC(c2noc3cc(F)ccc23)CC1 ({Thiocarbamoyl(N-2-FPh)}-GGFP-X1)	Staphylococcus aureus	26
COc1ccc(NC(=S)NCC(=O)N[C@@H](Cc2ccccc2)C(=O)NCC(=O)N[C@@H](Cc2ccccc2)C(=O)N2CCC[C@H]2C(=O)N2CCC(c3noc4cc(F)ccc34)CC2)cc1 ({Thiocarbamoyl(4-MeOPh)}-GFGFP-X1)	Staphylococcus aureus	29
COc1ccc(NC(=S)NCC(=O)N[C@H](C(=O)NCC(=O)N[C@H](C(=O)N2CCC[C@H]2C(=O)N2CCN(c3cccc(Cl)c3Cl)CC2)C(C)C)C(C)C)cc1 ({Thiocarbamoyl(4-MeOPh)}-GVGVP-{Piperazinyl(4-(2,3-Cl2Ph))})	Staphylococcus aureus	22
O=C(CNC(=S)Nc1ccc(Cl)cc1)N[C@@H](Cc1ccccc1)C(=O)NCC(=O)N[C@@H](Cc1ccccc1)C(=O)N1CCC[C@H]1C(=O)N1CCC(c2noc3cc(F)ccc23)CC1 ({Thiocarbamoyl(N-4-ClPh)}-GFGFP-X1)	Staphylococcus aureus	32
O=C([C@H](Cc1c[nH]c2ccccc12)NC(=S)Nc1ccccc1F)N1CCN(c2cccc(Cl)c2Cl)CC1	Staphylococcus aureus	12
CC(C)[C@H](NC(=O)CNC(=S)Nc1ccc(Cl)cc1)C(=O)NCC(=O)N[C@H](C(=O)N1CCC[C@H]1C(=O)N1CCN(c2cccc(Cl)c2Cl)CC1)C(C)C ({Thiocarbamoyl(N-4-ClPh)}-GVGVP-{Piperazinyl(4-(2,3-Cl2Ph))})	Staphylococcus aureus	26
CC[C@H](C)[C@H](NC(=O)CNC(=O)CNC(=O)Nc1ccc(Cl)cc1)C(=O)N1CCC[C@H]1C(=O)N1CCC(c2noc3cc(F)ccc23)CC1 ({NH(4-Cl-phenyl)-CO}-GGIP-X1)	Staphylococcus aureus	19
COc1ccc(NC(=O)NCC(=O)N[C@H](C(=O)NCC(=O)N[C@H](C(=O)N2CCC[C@H]2C(=O)N2CCC(c3noc4cc(F)ccc34)CC2)C(C)C)C(C)C)cc1 ({NH(4-MeO-phenyl)-CO}-GVGVP-X1)	Staphylococcus aureus	23
O=C(Nc1ccccc1F)N[C@@H](Cc1c[nH]c2ccccc12)C(=O)N1CCN(c2cccc(Cl)c2Cl)CC1	Staphylococcus aureus	11
O=C(CNC(=O)Nc1ccc(Cl)cc1)N[C@@H](Cc1ccccc1)C(=O)NCC(=O)N[C@@H](Cc1ccccc1)C(=O)N1CCC[C@H]1C(=O)N1CCC(c2noc3cc(F)ccc23)CC1 ({NH(4-Cl-phenyl)-CO}-GFGFP-X1)	Staphylococcus aureus	31
O=C(CNC(=O)Nc1ccccc1F)N[C@@H](Cc1ccccc1)C(=O)NCC(=O)N[C@@H](Cc1ccccc1)C(=O)N1CCC[C@H]1C(=O)N1CCC(c2noc3cc(F)ccc23)CC1 ({NH(2-F-phenyl)-CO}-GFGFP-X1)	Staphylococcus aureus	34
O=C(CNC(=S)Nc1ccc(Cl)cc1)NCC(=O)N[C@@H](Cc1ccccc1)C(=O)N1CCC[C@H]1C(=O)N1CCN(c2cccc(Cl)c2Cl)CC1 ({Thiocarbamoyl(N-4-ClPh)}-GGFP-{Piperazinyl(4-(2,3-Cl2Ph))})	Staphylococcus aureus	23
CC[C@H](C)[C@H](NC(=O)CNC(=O)CNC(=S)Nc1ccc(OC)cc1)C(=O)N1CCC[C@H]1C(=O)N1CCC(c2noc3cc(F)ccc23)CC1 ({Thiocarbamoyl(4-MeOPh)}-GGIP-X1)	Staphylococcus aureus	16
O=C(CNC(=S)Nc1ccc(Cl)cc1)NCC(=O)N[C@@H](Cc1ccccc1)C(=O)N1CCC[C@H]1C(=O)N1CCC(c2noc3cc(F)ccc23)CC1 ({Thiocarbamoyl(N-4-ClPh)}-GGFP-X1)	Staphylococcus aureus	24
COc1ccc(NC(=O)NCC(=O)N[C@@H](Cc2ccccc2)C(=O)NCC(=O)N[C@@H](Cc2ccccc2)C(=O)N2CCC[C@H]2C(=O)N2CCC(c3noc4cc(F)ccc34)CC2)cc1 ({NH(4-MeO-phenyl)-CO}-GFGFP-X1)	Staphylococcus aureus	28
O=C(CNC(=O)Nc1ccccc1F)NCC(=O)N[C@@H](Cc1ccccc1)C(=O)N1CCC[C@H]1C(=O)N1CCC(c2noc3cc(F)ccc23)CC1 ({NH(2-F-phenyl)-CO}-GGFP-X1)	Staphylococcus aureus	25
O=C(CNC(=S)Nc1ccc(Cl)cc1)N[C@@H](Cc1ccccc1)C(=O)NCC(=O)N[C@@H](Cc1ccccc1)C(=O)N1CCC[C@H]1C(=O)N1CCN(c2cccc(Cl)c2Cl)CC1 ({Thiocarbamoyl(N-4-ClPh)}-GFGFP-{Piperazinyl(4-(2,3-Cl2Ph))})	Staphylococcus aureus	30
O=C([C@H](Cc1c[nH]c2ccccc12)NC(=S)Nc1ccccc1F)N1CCC(c2noc3cc(F)ccc23)CC1	Staphylococcus aureus	9
CC(C)[C@H](NC(=O)CNC(=S)Nc1ccccc1F)C(=O)NCC(=O)N[C@H](C(=O)N1CCC[C@H]1C(=O)N1CCC(c2noc3cc(F)ccc23)CC1)C(C)C ({Thiocarbamoyl(N-2-FPh)}-GVGVP-X1)	Staphylococcus aureus	31
